The measurements presented in this section are drawn from patent US20260317314A1.

The following molecules are listed with their measured efflux ratio at 2.5 h, 2 µM values.
# Assay Details: Permeability test in MDR1-MDCKII monolayer cell model
# Type: in vitro ADME
# Condition: dog, MDCK-MDR1, pH 7.4, ER=Papp(BA)/Papp(AB)

[
  {
    "Molecule": "CCC(=O)NC1CCOc2c(-c3cc4c(s3)N(C)C(=O)CC4)cncc21 (single isomer, unassigned)",
    "efflux ratio at 2.5 h, 2 µM": 1.17
  },
  {
    "Molecule": "CCC(=O)NC1CCCc2c(-c3ccc4c(c3)OCC(=O)N4C)cncc21 (single isomer, unassigned)",
    "efflux ratio at 2.5 h, 2 µM": 0.89
  },
  {
    "Molecule": "CCC(=O)NC1CCCc2c(-c3cc4c(cc3F)N(C)C(=O)CO4)cncc21 (single isomer, unassigned)",
    "efflux ratio at 2.5 h, 2 µM": 0.86
  },
  {
    "Molecule": "CCC(=O)NC1CCCc2c(-c3cc(F)c4c(c3)OCC(=O)N4C)cncc21 (single isomer, unassigned)",
    "efflux ratio at 2.5 h, 2 µM": 0.89
  }
]

###

# Assay Details: Permeability test in MDR1-MDCKII monolayer cell model
# Format: in vitro ADME
# Condition: dog, MDCK-MDR1, pH 7.4, pH 7.40, 2.5 hours, 37±1° C., read-out: Apparent permeability coefficient (Papp (AB))
Experimental Readout: Papp A→B at 2.5 h, 2 µM (×10⁻⁶ cm/s)

[
  {
    "Compound": "CCC(=O)NC1CCCc2c(-c3cc4c(cc3F)N(C)C(=O)CO4)cncc21 (single isomer, unassigned) [Compound 032]",
    "Units Label": "×10⁻⁶ cm/s",
    "Recorded Number": 22.6
  },
  {
    "Compound": "CCC(=NOC)NC1CCCc2c(-c3ccc4c(c3)CCC(=O)N4C)cncc21 (single isomer, unassigned) [Compound 005]",
    "Units Label": "×10⁻⁶ cm/s",
    "Recorded Number": 23.1
  },
  {
    "Compound": "CCC(=O)N[C@@H]1CCCc2c(-c3ccc4c(ccc(=O)n4C)c3)cncc21 (single isomer, unassigned) [Compound 001]",
    "Units Label": "×10⁻⁶ cm/s",
    "Recorded Number": 17.2
  },
  {
    "Compound": "CCC(=O)N[C@H]1CCOc2c(-c3ccc4c(c3)CCC(=O)N4C)cncc21 (single isomer, unassigned) [Compound 037]",
    "Units Label": "×10⁻⁶ cm/s",
    "Recorded Number": 10.7
  },
  {
    "Compound": "CCC(=O)NC1CCCc2c(-c3cc(F)c4c(c3)OCC(=O)N4C)cncc21 (single isomer, unassigned) [Compound 031]",
    "Units Label": "×10⁻⁶ cm/s",
    "Recorded Number": 20
  },
  {
    "Compound": "CCC(=O)NC1CCCc2c(-c3ccc4c(c3)OCC(=O)N4C)cncc21 (single isomer, unassigned) [Compound 011]",
    "Units Label": "×10⁻⁶ cm/s",
    "Recorded Number": 24.3
  },
  {
    "Compound": "CCC(=O)NC1CCOc2c(-c3cc4ccc(=O)n(C)c4s3)cncc21 (single isomer, unassigned) [Compound 045]",
    "Units Label": "×10⁻⁶ cm/s",
    "Recorded Number": 16.7
  },
  {
    "Compound": "CCC(=O)NC1CCOc2c(-c3cc4c(s3)N(C)C(=O)CC4)cncc21 (single isomer, unassigned) [Compound 046]",
    "Units Label": "×10⁻⁶ cm/s",
    "Recorded Number": 18
  }
]

###

# Assay Details: Permeability test in MDR1-MDCKII monolayer cell model
# Type: in vitro ADME
# Condition: dog, MDCK-MDR1, pH 7.4, ER=Papp(BA)/Papp(AB)

[
  {
    "Compound": "CCC(=NOC)NC1CCCc2c(-c3ccc4c(c3)CCC(=O)N4C)cncc21 (single isomer, unassigned)",
    "efflux ratio at 2.5 h, 2 µM": 0.7
  },
  {
    "Compound": "CCC(=O)N[C@@H]1CCCc2c(-c3ccc4c(ccc(=O)n4C)c3)cncc21 (single isomer, unassigned)",
    "efflux ratio at 2.5 h, 2 µM": 1.76
  },
  {
    "Compound": "CCC(=O)N[C@H]1CCOc2c(-c3ccc4c(c3)CCC(=O)N4C)cncc21 (single isomer, unassigned)",
    "efflux ratio at 2.5 h, 2 µM": 1.88
  },
  {
    "Compound": "CCC(=O)NC1CCOc2c(-c3cc4ccc(=O)n(C)c4s3)cncc21 (single isomer, unassigned)",
    "efflux ratio at 2.5 h, 2 µM": 1.3
  }
]

###

The following molecules are listed with their measured fraction unbound at 4 h values.
# Assay Details: Plasma protein binding rate test, human (equilibrium dialysis)
# Type: in vitro ADME
# Condition: 37° C.

[
  {
    "Molecule": "CCC(=O)NC1CCOc2c(-c3cc4c(s3)N(C)C(=O)CC4)cncc21 (single isomer, unassigned)",
    "fraction unbound at 4 h": 0.166
  },
  {
    "Molecule": "CCC(=O)NC1CCCc2c(-c3cc4c(cc3F)N(C)C(=O)CO4)cncc21 (single isomer, unassigned)",
    "fraction unbound at 4 h": 0.151
  },
  {
    "Molecule": "CCC(=O)NC1CCCc2c(-c3cc(F)c4c(c3)OCC(=O)N4C)cncc21 (single isomer, unassigned)",
    "fraction unbound at 4 h": 0.193
  },
  {
    "Molecule": "CCC(=O)N[C@@H]1CCCc2c(-c3ccc4c(ccc(=O)n4C)c3)cncc21 (single isomer, unassigned)",
    "fraction unbound at 4 h": 0.239
  },
  {
    "Molecule": "CCC(=NOC)NC1CCCc2c(-c3ccc4c(c3)CCC(=O)N4C)cncc21 (single isomer, unassigned)",
    "fraction unbound at 4 h": 0.106
  },
  {
    "Molecule": "CCC(=O)NC1CCOc2c(-c3cc4ccc(=O)n(C)c4s3)cncc21 (single isomer, unassigned)",
    "fraction unbound at 4 h": 0.239
  },
  {
    "Molecule": "CCC(=O)NC1CCCc2c(-c3ccc4c(c3)OCC(=O)N4C)cncc21 (single isomer, unassigned)",
    "fraction unbound at 4 h": 0.245
  },
  {
    "Molecule": "CCC(=O)N[C@H]1CCOc2c(-c3ccc4c(c3)CCC(=O)N4C)cncc21 (single isomer, unassigned)",
    "fraction unbound at 4 h": 0.354
  }
]

###

# Assay Details: In vivo pharmacokinetic study in cynomolgus monkeys
# Design: species or system cynomolgus monkey
# Condition: cynomolgus monkey; male cynomolgus monkeys, oral 1 mg/kg, plasma; read-out: AUC0-24 h

[
  {
    "Compound": "CCC(=O)N[C@H]1CCOc2c(-c3ccc4c(c3)CCC(=O)N4C)cncc21 (single isomer, unassigned) [Compound 037]",
    "Units Label": "µM·h",
    "AUC(0-t) at 24 h": 10
  }
]

###

# Assay Details: In vivo pharmacokinetic study in cynomolgus monkeys
# Set-up: species or system cynomolgus monkey
# Condition: cynomolgus monkey, plasma; male cynomolgus monkeys, oral 1 mg/kg
Experimental Readout: bioavailability (%)

[
  {
    "Compound": "CCC(=O)N[C@H]1CCOc2c(-c3ccc4c(c3)CCC(=O)N4C)cncc21 (single isomer, unassigned)",
    "Recorded Number": 67
  }
]

###

The following compounds are listed with their measured fraction unbound at 4 h values.
# Assay Details: Plasma protein binding rate test, SD rat (equilibrium dialysis)
# Assay type: in vitro ADME
# Condition: 37° C., read-out: Plasma protein binding rate (%) in SD rats (converted)

[
  {
    "Compound": "CCC(=O)N[C@@H]1CCCc2c(-c3ccc4c(ccc(=O)n4C)c3)cncc21 (single isomer, unassigned) [Compound 001]",
    "fraction unbound at 4 h": 0.079
  },
  {
    "Compound": "CCC(=O)NC1CCCc2c(-c3ccc4c(c3)OCC(=O)N4C)cncc21 (single isomer, unassigned) [Compound 011]",
    "fraction unbound at 4 h": 0.139
  },
  {
    "Compound": "CCC(=NOC)NC1CCCc2c(-c3ccc4c(c3)CCC(=O)N4C)cncc21 (single isomer, unassigned) [Compound 005]",
    "fraction unbound at 4 h": 0.102
  },
  {
    "Compound": "CCC(=O)N[C@@H]1CCCc2c(-c3cc(F)c4c(ccc(=O)n4C)c3)cncc21 (single isomer, unassigned) [Compound 018]",
    "fraction unbound at 4 h": 0.08
  }
]

###

# Test system: plasma protein
# Assay Details: Plasma protein binding rate test, human (equilibrium dialysis)
# Format: in vitro ADME
# Condition: 37° C., 4 hours
# Source text: The sample was thoroughly mixed.

[
  {
    "Molecule": "Cc1noc(C)c1C(=O)N[C@@H]1CCCc2c(-c3cc4ccc(=O)n(C)c4cc3F)cncc21 (single isomer, unassigned)",
    "Human plasma protein binding rate (%)": 85.6
  },
  {
    "Molecule": "CCC(=O)N[C@@H]1CCCc2c(-c3cc(F)c4c(ccc(=O)n4C)c3)cncc21 (single isomer, unassigned)",
    "Human plasma protein binding rate (%)": 80.9
  },
  {
    "Molecule": "CCC(=O)N[C@@H]1CCCc2c(-c3cc4c(s3)N(C)C(=O)CC4)cncc21 (single isomer, unassigned)",
    "Human plasma protein binding rate (%)": 82.7
  }
]
